# Tested on: Fer (mouse)
# PROTOCOL DESCRIPTION: phosphorylation enrichment, bacterial display (enrichment ratio); higher = better substrate or ligand; peptides without Tyr show the background;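 further: 11-residue human phosphosite peptides and single-mutation variants displayed on the E. coli surface, counted by deep sequencing, each peptide's frequency after selection divided by its frequency in the unselected input library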;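 further: frequency after pTyr selection over input frequency; kinase dosed for 20-30% of maximal phosphorylation in three min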
Categories are defined by ranges of phosphorylation enrichment, namely bin 1 = under 0.4, bin 2 = from 0.4 up to 0.7, bin 3 = 0.7 and over

Answered examples (4):
RESIDUES	CATEGORY LABEL
VDGFVYKLHPS [GCK_Y413_S411F]	bin 1
VNFGAYINDFN [GLB1_Y488_K493N_YF]	bin 2
AKRKNYAPVTM [CFAP47_Y557_A561T]	bin 1
ILGRYYETSSI [PAX2_Y73_G76S]	bin 2

Query: Please classify: VEDPEYAVTQP [STOML2_Y124_L129P]
Response: bin 2

Query: Category of PLLLSYFLIKW [NUP160_Y773_YF] :
Response: bin 1

Query: Exam item: assign MSGDVYSTDFF [NTRK2_Y702_R699G_YF] to the correct category.
Response: bin 3

Query: Returns: class label. Input: QNTGVYFDLFG [PTPN11_Y62_D61V_YF]
Response: bin 3

Query: Entry AVSEGYKDFRA [CDA_Y79] belongs to which category?
Response: bin 1

Query: The entry to classify is FAELVYTSFWH [ASS1_Y322_G324S] ; which class holds it?
Response: bin 3

Query: Lab note: which band did NGRQCYSCRGN [PLAUR_Y217_K220R] land in?
Response: bin 1

###

Field: phosphorylation enrichment. Provide a value for each of the sequences that follow.
# Test system: c-Src
# PROTOCOL DESCRIPTION: phosphorylation enrichment, bacterial display (enrichment ratio); higher = better substrate or ligand; peptides without Tyr show the background
Answers are plain numbers.

RESIDUES	TEST SYSTEM	phosphorylation enrichment
HAVEDYQAIVD [CCT7_Y263_T259A]	c-Src	0.942

Lab note: each sequence below needs its phosphorylation enrichment filled in.
1. GREEFYSTHPH [LRRK2_Y1402]
2. QTLTDYDIRFF [CSNK2A1_Y131_YF]
3. CNLDTYQKRLR [PLA2G2D_Y126_R121C]

Response:
0.421
0.481
0.473

###

# TEST SYSTEM: FGFR1 (UniProt P11362)
# Sequence (P11362 whole entry, looked up): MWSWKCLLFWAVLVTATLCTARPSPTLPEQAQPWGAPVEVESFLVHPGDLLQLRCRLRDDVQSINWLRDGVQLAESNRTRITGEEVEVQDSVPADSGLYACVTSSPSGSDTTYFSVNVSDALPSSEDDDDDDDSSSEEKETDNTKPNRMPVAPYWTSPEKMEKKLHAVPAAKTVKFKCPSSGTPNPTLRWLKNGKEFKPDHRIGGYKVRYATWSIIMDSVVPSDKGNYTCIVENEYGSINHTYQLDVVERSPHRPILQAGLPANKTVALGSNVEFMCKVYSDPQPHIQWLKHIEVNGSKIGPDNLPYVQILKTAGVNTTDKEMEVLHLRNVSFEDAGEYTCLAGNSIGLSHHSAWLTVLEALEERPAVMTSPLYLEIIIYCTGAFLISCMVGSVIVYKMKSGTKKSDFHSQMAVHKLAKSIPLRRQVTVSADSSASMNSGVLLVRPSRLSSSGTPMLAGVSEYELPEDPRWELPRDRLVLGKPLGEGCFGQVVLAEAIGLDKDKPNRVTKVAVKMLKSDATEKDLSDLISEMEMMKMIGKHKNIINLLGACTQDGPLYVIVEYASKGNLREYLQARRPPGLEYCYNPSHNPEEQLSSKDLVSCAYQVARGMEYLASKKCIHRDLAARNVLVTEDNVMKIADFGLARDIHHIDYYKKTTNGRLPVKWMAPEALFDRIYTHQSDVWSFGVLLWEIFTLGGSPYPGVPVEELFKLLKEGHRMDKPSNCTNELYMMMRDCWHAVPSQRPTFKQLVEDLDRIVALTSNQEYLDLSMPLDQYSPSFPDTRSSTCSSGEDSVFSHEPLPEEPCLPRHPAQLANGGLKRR
# PROTOCOL DESCRIPTION: phosphorylation enrichment, bacterial display (enrichment ratio); higher = better substrate or ligand; peptides without Tyr show the background
Hi, to clarify the labels: T covers phosphorylation enrichment from 0.6 upward, F covers anything below 0.6.

Reference set, count: 5
RESIDUES	TEST SYSTEM	CATEGORY LABEL
SEPDLYCDPRG [PKP1_Y160]	FGFR1 (UniProt P11362)	T
EHTILYSNNST [KANSL1_Y223_T221I]	FGFR1 (UniProt P11362)	F
IFLGAYDRFLP [SLC22A5_Y486_V481I_YF]	FGFR1 (UniProt P11362)	F
EVTLTYATGTK [NFKB1_Y485]	FGFR1 (UniProt P11362)	F
SDGHEYIFVDP [PDGFRB_Y579_YF]	FGFR1 (UniProt P11362)	T

Turning now to a further record.
Query: State whether the measured phosphorylation enrichment reaches 0.6, counting equality as reaching it, for IVEELYAIPPD [PEAK1_Y797_S792I]
Response: T

The reported numbers originate from the supplement of paper PMC10065799.
